Source: patent US11286268B1

- experimental.system: recombinant eIF4E (Homo sapiens (Human))
- Sequence (P06730 whole entry): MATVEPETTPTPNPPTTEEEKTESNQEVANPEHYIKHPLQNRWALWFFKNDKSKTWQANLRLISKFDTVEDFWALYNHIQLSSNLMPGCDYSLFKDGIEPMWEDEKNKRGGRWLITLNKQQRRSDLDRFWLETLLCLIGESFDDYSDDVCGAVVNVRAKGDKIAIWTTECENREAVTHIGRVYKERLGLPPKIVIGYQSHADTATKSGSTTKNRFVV
- experimental.protocol: Fluorescence polarization competition assay for eIF4E binding potency
- condition.parameters: fluorescence polarization competition, 75 nM recombinant eIF4E, 20 nM EDA-m7GDP-ATTO-550; IC50 class; read-out: elF4E FP
- Experimental: Compounds were screened for eIF4E binding potency using a fluorescence polarization competition assay. All binding reactions were performed in fluorescence polarization buffer (FPB) containing 20 mM Tris pH 7.5, 100 mM NaCl, 1 mM DTT, and 0.02% Tween-20. Final binding reactions contained 75 nM recombinant eIF4E (Beryllium, custom order), 20 nM EDA-m^7GDP-ATTO-550 (Jena Bioscience, NU-827-550) and varying concentrations of the inhibitory compound of interest. […]
For each entry below, report its IC50 value.

Below, each entry is followed by its recorded IC50 result.
Cc1cc(-c2cc(Cl)ccc2OCCn2c(C)nc3cc(Cl)c(CCN(C)C)c(C#N)c3c2=O)c2scc(C(=O)O)c2n1 [compound 609]
< 50 nM
CCN(c1ncc2nc(C)n(CC#Cc3ccc(Cl)cc3-c3ccnc4c(C(=O)O)csc34)c(=O)c2c1C#N)C1CCN(CC(F)(F)C(F)F)CC1 [compound 1191]
< 50 nM
Cc1nc2cc(C(F)(F)F)cc(C#N)c2c(=O)n1CCOc1ccc(Cl)cc1-c1cc(CN(C)C)nc2c(C(=O)O)csc12 [compound 636]
< 50 nM

I would be grateful if you could provide IC50 for each of the following entries.
1. Cc1cc(-c2cc(Cl)ccc2OCCn2c(C)nc3cc(C(F)(F)F)c(C4CCCN4C)c(C#N)c3c2=O)c2scc(C(=O)O)c2n1 (centres unmarked) [compound 708]
2. CCN(CC)S(=O)(=O)c1ccc2nc(C)n(CCOc3ccc(Cl)cc3-c3ccnc4c(C(=O)O)csc34)c(=O)c2c1C#N [compound 250]
3. Cc1cc(-c2cc(Cl)ccc2OCCn2c(C)nc3cc(C(F)(F)F)c(CN(C)C)c(C#N)c3c2=O)c2scc(C(=O)NS(C)(=O)=O)c2n1 [compound 568]
4. Cc1cc(-c2cc(Cl)ccc2OCCn2c(C)nc3cnc(N4[C@@H]5CC[C@H]4CN(C)C5)c(C#N)c3c2=O)c2sc(C)c(C(=O)O)c2n1 [compound 1092]
5. Cc1nc2cnc(N3CCN(C4CC4)CC3(C)C)c(C#N)c2c(=O)n1CCOc1ccc(Cl)cc1-c1ccnc2c(C(=O)O)csc12 [compound 1101]
6. N#Cc1cc2c(=O)n(CCOc3ccc(Cl)cc3-c3cc(C(=O)O)c4ccccc4n3)cnc2cn1 [compound 99]
7. Cc1nc2cc(C(F)(F)F)c(N3CCN(C)CC3)c(C#N)c2c(=O)n1CCOc1ccc(Cl)cc1-c1ccnc2c(Cl)csc12 [compound 1247]
8. Cc1nc2cc(C(F)(F)F)cc(C#N)c2c(=O)n1CCOc1ccc(Cl)cc1-c1ccnc2c(C(=O)O)c[nH]c12 [compound 323]

Output line:
["50 to 1000 nM", "< 50 nM", "< 50 nM", "< 50 nM", "< 50 nM", "> 1000 nM", "< 50 nM", "50 to 1000 nM"]

# per-item lookup of IC50; items listed below
1. Cc1cc(-c2cc(Cl)c(F)cc2OCCn2c(C)nc3cc(C(F)(F)F)cc(C#N)c3c2=O)c2scc(C(=O)O)c2n1 [compound 571]
2. Cc1cc(-c2cc(Cl)ccc2OCCn2c(C)nc3cc(C(F)(F)F)c(-c4cncc(C(F)(F)F)n4)nc3c2=O)c2scc(C(=O)O)c2n1 [compound 1021]
3. Cc1cc(-c2cc(Cl)ccc2OCCn2c(C)nc3c(=O)n(C)c(-c4ccccc4)c(C#N)c3c2=O)c2scc(C(=O)O)c2n1 [compound 1193]
4. Cc1cc(-c2cc(Cl)ccc2OCCn2c(C)nc3nc(C(F)(F)F)c(C)nc3c2=O)c2scc(C(=O)O)c2n1 [compound 760]

Output line:
1. 50 to 1000 nM
2. < 50 nM
3. < 50 nM
4. < 50 nM

For every item in the list below, what is its measured IC50?
1. Cn1ccc2c(=O)n(CCOc3ccc(Cl)cc3-c3cccc(C(=O)O)c3)cnc21 [compound 68]
2. Cc1nc2cc(C(F)(F)F)cc(C#N)c2c(=O)n1CCOc1ccc(Cl)cc1-c1cc(CO)nc2c(C(=O)O)csc12 [compound 484]
3. Cc1cc(-c2cc(Cl)ccc2OCCn2c(C)nc3cnc(-c4ccc(C)c(O)c4)c(C#N)c3c2=O)c2scc(C(=O)O)c2n1 [compound 1227]
4. Cc1cc(-c2cc(Cl)ccc2OCCn2c(C)nc3c(C)ncc(C#N)c3c2=O)c2scc(C(O)C(F)(F)F)c2n1 (centres unmarked) [compound 733]
5. Cc1nc2c(C(C)C)nc(N3CCN(CCF)CC3)c(C#N)c2c(=O)n1CCOc1ccc(Cl)cc1-c1ccnc2c(C(=O)O)csc12 [compound 183]
6. Cc1cc(C)nc(-c2c(C(F)(F)F)cc3nc(C)n(CCOc4ccc(Cl)cc4-c4cc(C)nc5c(C(=O)O)csc45)c(=O)c3c2C#N)c1 [compound 905]

Output line:
1: > 1000 nM; 2: < 50 nM; 3: < 50 nM; 4: > 1000 nM; 5: 50 to 1000 nM; 6: < 50 nM

Here are 5 compounds. What values of IC50 were reported for them?
1. N#Cc1cc(C(F)(F)F)cc2c(Cl)c(Cl)n(CCOc3ccc(Cl)cc3-c3ccnc4c(C(=O)O)csc34)c(=O)c12 [compound 46]
2. Cc1c(S(C)(=O)=O)c2cc(C(F)(F)F)cc(C#N)c2c(=O)n1CCOc1ccc(Cl)cc1-c1ccnc2c(C(=O)O)csc12 [compound 318]
3. Cc1nc2cc(C(F)(F)F)c(CC3CN(CC(F)F)C3)c(C#N)c2c(=O)n1CCOc1ccc(Cl)cc1-c1ccnc2c(C(=O)O)csc12 [compound 376]
4. CCc1nc(C)c2nc(C)n(CCOc3ccc(Cl)cc3-c3cc(C)nc4c(C(=O)O)csc34)c(=O)c2c1C#N [compound 850]
5. N#Cc1c(C(F)F)ccc2ncn(CCOc3ccc(Cl)cc3-c3ccnc(C(=O)O)c3)c(=O)c12 [compound 161]

Output line:
1. 50 to 1000 nM
2. < 50 nM
3. < 50 nM
4. < 50 nM
5. 50 to 1000 nM
